System: gene editing with Cas9
Experiment: Screen of 322 new SSAP proteins, gene editing activity with Cas9 (Table 5)
Format: cell-based
Details: normalized

molecule: SSAP_272: SEQ ID NO: 441; Clostridium cadaveris (protein, listed as Clostridium cadaveris) ATNSSLKNQLSKKENVTIGNTMQGLLNNPKMKKRFEEILDKKAPQYMSSILNLYNGDTSLQKCEPMSVLSSSMIAATMDLPVDKNLGYAWIVPYKNKAQFQMGYKGYIQLALRTGQYKHINAIEIHEGELVNWNPLTEELEIDFTKKESDKIIGYAGYFELLNGFKKSTYWTKTQIENHRKKFSKSDYGWNKDFDAMAIKTVIRNMLSKWGILSIEMQNAYTADENIIKDSFIDDSENVSANIEDLVEADYTVNQDSLESKEEFEGTPLE
Cas9 with SSAP activity (normalized): 0.626
//
molecule: SSAP_90: SEQ ID NO: 259; Xenorhabdus poinarii (protein, listed as Xenorhabdus poinarii) TNTPPLAQADLQKAQPQTKVAATKDQALIQFINKPSMKAQLAAALPRHMAPDRMIRIVTTEIRKTPALANCDMQSFVGAVVQCSQLGLEPGSALGHAYLLPFGNGKSKTGQSNVQLIIGYRGMIDLARRSGQIVSISARTVRDGDQFHYEYGLNENLTHIPGENEDAPITHVYAVARLQDGGVQFEVMTRKQVEKVREKSSAGNNGPWVTHWEEMAKKTVIRRLFKYLPVSIEMQKAVILDEKADANIDQDNAAIFEGEFEEVGNDG
Cas9 with SSAP activity (normalized): −0.093
